# Tested on: Phosphorylated Ribosomal Protein S6 (RPS6) in THP-1 cells
# TEST_DETAILS: THP-1 RPS6 ELISA assay
# Assay type: cell-based, human
# COND: Homo sapiens, THP-1, THP-1 cells, 10 nM MCP-1; read-out: PI3Kγ_THP1_RPS6_ELISA IC50
Structures can show the parent of a compound that is named as a salt.

| COMPOUND | IC50 |
| --- | --- |
| CNC(=O)C1CCN(c2c(C(C)NC(=O)c3c(N)nn4cccnc34)cc(Cl)c3cn[nH]c23)C1 (single isomer, unassigned) [Example 103A, trifluoroacetate] | < 1000 nM |
| CC(NC(=O)c1c(N)nn2cccnc12)c1cc(Cl)c2cncn2c1-c1cn[nH]c1 (racemic) [Example 139, trifluoroacetate salt] | < 500 nM |
| CC(NC(=O)c1c(N)nn2cccnc12)c1cc(Cl)c2cncn2c1N1CCCS(=O)(=O)CC1 (racemic) [Example 151, trifluoroacetate salt] | < 500 nM |
| CC(NC(=O)c1c(N)nn2cccnc12)c1cc(Cl)c2ccnn2c1N1CCNS(=O)(=O)CC1 (stereo not drawn) [Example 110, trifluoroacetate] | < 500 nM |
| CC(NC(=O)c1c(N)nn2cccnc12)c1cc(Cl)c2cncn2c1N1CC[S+]([O-])CC1 (stereo not drawn) [Example 37, trifluoroacetate salt] | < 500 nM |
| CCOc1c(C(C)NC(=O)c2c(N)nn3cccnc23)cc(Cl)c2c(Br)n[nH]c12 (stereo not drawn) [Example 52, trifluoroacetate] | < 500 nM |

---

# EXPERIMENTAL_TARGET: PI3Kδ (p110δ/p85α) Recombinant Human Protein (Homo sapiens (Human))
# Sequence (O00329 whole entry): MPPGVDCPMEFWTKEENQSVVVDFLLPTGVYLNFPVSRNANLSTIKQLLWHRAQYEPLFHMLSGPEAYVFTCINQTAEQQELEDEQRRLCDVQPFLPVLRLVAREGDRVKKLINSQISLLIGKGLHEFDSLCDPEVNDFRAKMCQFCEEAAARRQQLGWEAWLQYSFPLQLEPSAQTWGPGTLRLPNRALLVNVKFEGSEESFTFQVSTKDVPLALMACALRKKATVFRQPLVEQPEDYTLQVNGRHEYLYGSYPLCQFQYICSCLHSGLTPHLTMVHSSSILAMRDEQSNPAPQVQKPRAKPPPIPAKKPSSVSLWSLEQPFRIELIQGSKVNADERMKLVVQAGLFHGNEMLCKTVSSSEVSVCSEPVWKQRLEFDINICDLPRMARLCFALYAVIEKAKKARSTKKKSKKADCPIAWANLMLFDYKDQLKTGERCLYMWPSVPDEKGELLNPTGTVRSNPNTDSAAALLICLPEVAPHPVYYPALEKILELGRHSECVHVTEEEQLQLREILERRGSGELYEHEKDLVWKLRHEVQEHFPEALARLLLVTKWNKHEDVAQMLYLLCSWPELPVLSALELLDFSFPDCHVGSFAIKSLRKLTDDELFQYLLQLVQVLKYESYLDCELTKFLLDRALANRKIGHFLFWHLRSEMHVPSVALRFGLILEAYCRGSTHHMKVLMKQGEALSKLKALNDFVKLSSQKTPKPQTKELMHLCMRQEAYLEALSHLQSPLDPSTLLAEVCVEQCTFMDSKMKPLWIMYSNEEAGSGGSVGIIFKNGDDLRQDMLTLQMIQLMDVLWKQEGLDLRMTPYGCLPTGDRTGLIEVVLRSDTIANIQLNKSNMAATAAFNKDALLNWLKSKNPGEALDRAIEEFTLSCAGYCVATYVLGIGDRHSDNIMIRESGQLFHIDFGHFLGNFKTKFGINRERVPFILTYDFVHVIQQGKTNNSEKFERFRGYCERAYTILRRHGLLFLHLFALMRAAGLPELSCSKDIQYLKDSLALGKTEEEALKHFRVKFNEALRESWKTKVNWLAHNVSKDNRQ
# Sequence (P27986 whole entry partner): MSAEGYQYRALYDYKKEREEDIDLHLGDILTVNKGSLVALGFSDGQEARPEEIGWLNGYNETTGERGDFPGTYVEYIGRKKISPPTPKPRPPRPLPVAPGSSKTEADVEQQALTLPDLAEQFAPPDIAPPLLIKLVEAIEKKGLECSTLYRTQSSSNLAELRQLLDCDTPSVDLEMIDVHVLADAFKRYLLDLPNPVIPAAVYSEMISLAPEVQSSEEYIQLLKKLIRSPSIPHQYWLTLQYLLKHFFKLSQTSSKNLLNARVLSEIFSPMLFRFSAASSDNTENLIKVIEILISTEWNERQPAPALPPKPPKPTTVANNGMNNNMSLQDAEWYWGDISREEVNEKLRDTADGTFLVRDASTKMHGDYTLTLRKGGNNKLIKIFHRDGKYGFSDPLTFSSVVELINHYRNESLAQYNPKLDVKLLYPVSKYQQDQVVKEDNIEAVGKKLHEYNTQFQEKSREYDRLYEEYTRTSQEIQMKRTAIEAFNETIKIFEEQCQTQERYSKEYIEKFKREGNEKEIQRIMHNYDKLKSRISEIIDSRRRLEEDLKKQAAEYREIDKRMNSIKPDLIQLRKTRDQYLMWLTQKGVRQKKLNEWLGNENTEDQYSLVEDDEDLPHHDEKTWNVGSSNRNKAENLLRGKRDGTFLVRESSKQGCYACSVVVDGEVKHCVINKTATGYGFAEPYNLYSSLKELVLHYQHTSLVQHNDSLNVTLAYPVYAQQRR
# TEST_DETAILS: PI3Kδ scintillation proximity assay
# Type: biochemical
# COND: 2 μM ATP, 20 μM PIP2
pIC50: −log10 of the molar value. Structures can show the parent of a compound that is named as a salt.

| COMPOUND | pIC50 |
| --- | --- |
| C[C@H](NC(=O)c1c(N)nn2cccnc12)c1cc(Cl)c2c(Cl)ncn2c1N1CCNC(=O)CC1 [Example 161, trifluoroacetate salt] | > 7.00 |
| CCC(NC(=O)c1c(N)nn2cccnc12)c1cc(Cl)c2cncn2c1N1CCS(=O)(=O)CC1 (stereo not shown) [Example 179, trifluoroacetate salt] | > 7.00 |
| CC(NC(=O)c1c(N)nn2cccnc12)c1cc(Cl)c2cncn2c1N1CCCC[C@@H]1C (stereo partly shown) [Example 72B, bistrifluoroacetate] | > 7.00 |
| Cc1nnc2c(Cl)cc(C(C)NC(=O)c3c(N)nn4cccnc34)c(-c3ccccc3)n12 (racemic) [Example 184, trifluoroacetate salt] | ≤ 5.70 |
| CC(NC(=O)c1c(N)nn2cccnc12)c1cc(Cl)c2cncn2c1N1CCC(O)(C(F)(F)F)CC1 (stereo not shown) [Example 89] | > 6.30 |
| CC(NC(=O)c1c(N)nn2cccnc12)c1cc(Cl)c2cncn2c1N1C[C@H](O)C[C@@H](O)C1 (mixture of isomers) [Example 155A, trifluoroacetate salt] | > 6.30 |
| CC(NC(=O)c1c(N)nn2cccnc12)c1cc(Cl)c2ccnn2c1N1CCS(=O)(=O)C(C)(C)C1 (stereo not shown) [Example 111, trifluoroacetate] | > 7.00 |
| CCOc1c(C(C)NC(=O)c2c(N)nn3ccc(-c4cncc(OC)c4)nc23)cc(Cl)c2cn[nH]c12 (stereo not shown) [Example 41] | > 7.00 |
| CC(NC(=O)c1c(N)nn2cccnc12)c1cc(Cl)c2cncn2c1N1CCC2(CC1)CNC(=O)O2 (stereo not shown) [Example 80, trifluoroacetate] | > 6.30 |
| CC(NC(=O)c1c(N)nn2cccnc12)c1cc(Cl)c2cn[nH]c2c1C1=CCC(C#N)CC1 (stereo not shown) [Example 101, trifluoroacetate] | > 6.30 |
| CC(NC(=O)c1c(N)nn2cccnc12)c1cc(Cl)c2cn[nH]c2c1N1CC[C@@H](NS(C)(=O)=O)C1 (stereo partly shown) [Example 96B, trifluoroacetate] | > 7.00 |
| CC(NC(=O)c1c(N)nn2cccnc12)c1cc(Cl)c2c(C#N)ncn2c1N1CCS(=O)(=O)CC1 (racemic) [Example 164, trifluoroacetate salt] | > 5.70 |
| CC(NC(=O)c1c(N)nn2cccnc12)c1cc(Cl)c2cn[nH]c2c1C1=CCNCC1 (stereo not shown) [Example 99, bis(trifluoroacetate)] | > 7.00 |
| CC(NC(=O)c1c(N)nn2cccnc12)c1cc(Cl)c2cncn2c1N1CCCC[C@H]1C (stereo partly shown) [Example 72A, bistrifluoroacetate] | > 7.00 |
| Nc1nn2cccnc2c1C(=O)NC(c1cc(Cl)c2cncn2c1N1CCS(=O)(=O)CC1)C1CC1 (racemic) [Example 182, trifluoroacetate salt] | > 7.00 |
| CC(NC(=O)c1c(N)nn2cccnc12)c1cc(Cl)c2cnnn2c1-c1ccccc1 (stereo not shown) [Example 63, trifluoroacetate] | > 6.30 |
| CC(NC(=O)c1c(N)nn2cccnc12)c1cc(Cl)c2cncn2c1N1CCCC(F)(F)C1 (stereo not shown) [Example 67] | > 7.00 |
| COc1cncc(-c2c(C(C)NC(=O)c3c(N)nn4cccnc34)cc(Cl)c3cncn23)c1 (stereo not shown) [Example 134, trifluoroacetate salt] | > 6.30 |
| Cc1ncn2c(-c3cccnc3)c(C(C)NC(=O)c3c(N)nn4cccnc34)cc(Cl)c12 (racemic) [Example 129, trifluoroacetate salt] | > 5.70 |
| CC(NC(=O)c1c(N)nn2cccnc12)c1cc(Cl)c2cncn2c1-c1cc[nH]n1 (racemic) [Example 130, trifluoroacetate salt] | > 6.30 |
| CC(NC(=O)c1c(N)nn2cccnc12)c1cc(Cl)c2cncn2c1N1CCCC(C)(C#N)C1 (single isomer, unassigned) [Example 77A] | > 6.30 |
| Cc1ncc2c(Cl)cc(C(C)NC(=O)c3c(N)nn4cccnc34)c(-c3cccnc3)n12 (racemic) [Example 120, trifluoroacetate salt] | > 7.00 |
| CC(NC(=O)c1c(N)nn2cccnc12)c1cc(Cl)c2cn[nH]c2c1N1CCC(O)C1 (single isomer, unassigned) [Example 90B, bis(trifluoroacetate)] | > 6.30 |
| CC(NC(=O)c1c(N)nn2cccnc12)c1cc(Cl)c2c(Cl)ncn2c1N1CCS(=O)(=O)CC1 (racemic) [Example 162, trifluoroacetate salt] | > 6.30 |
| CNS(=O)(=O)c1ccc(-c2c(C(C)NC(=O)c3c(N)nn4cccnc34)cc(Cl)c3cncn23)cc1 (racemic) [Example 135, trifluoroacetate salt] | > 6.30 |

Values compiled from patent US10065963B2.
